Entries and their inhibition at 50 mg/kg values follow.
# System: neuronal-uptake of serotonin
# assay_text: inhibition of the neuronal-uptake of serotonin (carbon-14 content of the spleen)
# Assay type: in vivo
# condition_info: Mus musculus, 1 h, at 50 mg/kg oral, male mice, serotonin-14C i.v. one hour after dosing, vs vehicle control, read-out: % Inhibition of Amine Uptake, Serotonin
Reply with just the number (in %).

> print(dat)
                                   compound  quantitative.readout
1  CN1CCC2(CC1)OC(c1ccc(Cl)cc1)C1CCCCN12 (centres unmarked)                    91

Look up inhibition at 50 mg/kg of c1ccc(C2OC3(CCN(CC4CC4)CC3)N3CCCCC23)cc1 (centres unmarked) and report it. 77

Look up inhibition at 50 mg/kg of Fc1ccc(C2OC3(CCNCC3)N3CCCCC23)cc1 (centres unmarked) and report it. 89

Look up inhibition at 50 mg/kg of COc1ccc(C2OC3(CCNCC3)N3CCCCC23)cc1 (centres unmarked) and report it. 89

Look up inhibition at 50 mg/kg of FC(F)(F)c1cccc(C2OC3(CCNCC3)N3CCCCC23)c1 (centres unmarked) and report it. 86

###

# System: neuronal-uptake of serotonin
# assay_text: inhibition of the neuronal-uptake of serotonin (carbon-14 content of the spleen)
# Type: in vivo
# condition_info: Mus musculus, 1 h, at 50 mg/kg oral, male mice, serotonin-14C i.v. one hour after dosing, vs vehicle control, read-out: % Inhibition of Amine Uptake, Serotonin
I would appreciate it if you labelled entries Fulfilled when inhibition at 50 mg/kg is 80% or higher, otherwise Not fulfilled.

> print(dat)
                                   compound   answer.label
1  c1ccc(C2OC3(CCNCC3)N3CCCCC23)cc1 (stereo not drawn)      Fulfilled
2  Fc1cccc(C2OC3(CCNCC3)N3CCCCC23)c1 (stereo not drawn)      Fulfilled
3  COc1ccccc1C1OC2(CCNCC2)N2CCCCC12 (stereo not drawn)  Not fulfilled
4  CN1CCC2(CC1)OC(c1ccccc1)C1CCCCN12 (stereo not drawn)  Not fulfilled

Field: next compound
Record Clc1ccc(C2OC3(CCN(Cc4ccccc4)CC3)N3CCCCC23)cc1 (stereo not drawn) ; criterion: inhibition at 50 mg/kg no lower than 80%. Met? Fulfilled
